FYI, the data here is from the Human Domainome abundance scans (Beltran et al. 2025).

B1: E3 ubiquitin-protein ligase NEDD4-like, residues 539 to 589; numbered along this chain, Q96PU5 (parent)
chain: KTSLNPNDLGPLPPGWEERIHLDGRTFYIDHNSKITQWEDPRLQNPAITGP

- Variants of: B1
- procedureDetails: abundance fitness (aPCA) (normalised: wild type 0, dead -1); higher = more abundant; growth selection in yeast, the domain comes from the species named
- runParameters: Homo sapiens
reportedEndpoint: abundance fitness

Worked set:
Y28I | -0.273
Y28K | -0.332
W16I | -0.684

## Input Look up abundance fitness: `E39D`
## Output -0.077

## Input // query abundance fitness value for entry `I29N`
## Output -0.378

## Input Using the record for `G50V` , report its abundance fitness.
## Output -0.064

## Input What value of measured abundance fitness is listed for `P13H` ?
## Output -1.04

## Input Report abundance fitness for `P46H` please.
## Output -0.105

## Input Could you tell me which abundance fitness is on file for `T2A` ?
## Output -0.223

## Input Fill in: abundance fitness of `P41C` is ___
## Output -0.672

## Input So what does the record say about abundance fitness for `D23Q` ?
## Output -0.252

## Input Please look up its abundance fitness: `I29A`
## Output -0.299

## Input Using the record for `Q37M` , report its abundance fitness.
## Output -0.231

## Input # query: abundance fitness of entry `D30K`
## Output -0.369

## Input Fill in: abundance fitness of `N32V` is ___
## Output -0.064

## Input Could you tell me which abundance fitness is on file for `P41H` ?
## Output -1.08

## Input Returns the measured abundance fitness for the input variant. Input: `N5G`
## Output -0.175

## Input Tell me the measured abundance fitness of `E18F` , please.
## Output -0.736

## Input Entry `L22R` : reported abundance fitness = ?
## Output 0.052

## Input What value of abundance fitness has been recorded for this entry: `D8K`
## Output -0.022

## Input Which value of abundance fitness has been reported for `D23V` in the records?
## Output -0.876

## Input Can you share its abundance fitness? I mean this variant: `I48L`
## Output -0.123
